Reported values of melting point for individual entries
Return type: number; implicit unit °C.

Answered cases to consult:
MOLECULE | melting point, °C
S=C1NCCN1 | 203
O=C1C=C2C(=CCOC2O)O1 (configuration not stated) | 111

Now look at this one.
Please give the measured melting point for this molecule: O=C(Nc1ccccc1)C(Cl)(Cl)Cl
96

----------
Reported values of melting point for individual entries
Return type: number; implicit unit °C.

Answered cases to consult:
COMPOUND | UNITS TEXT | melting point
Cc1ccc(NN=C2C(=O)OC(C)(C)OC2=O)cc1 | °C | 130
O=C(C(=O)c1ccc2c3c(cccc13)CC2)c1ccccc1 | °C | 148
CC(C)=CCCC(C)C1=C(O)C(=O)C(C)=CC1=O (stereo not drawn) | °C | 104
N#C/C(=N\Nc1cccc(C(F)(F)F)c1)c1nc2ccccc2[nH]1 | °C | 270
O=C(OCCc1ccc(CCOC(=O)c2ccccc2)cc1)c1ccccc1 | °C | 137
CC=C(C(=CC)c1ccc(O)cc1)c1ccc(O)cc1 | °C | 228
O=C1c2cc([N+](=O)[O-])ccc2-c2ccc([N+](=O)[O-])cc21 | °C | 294
CC(=O)OC1(C(C)=O)CCC2C3CC(C)C4=CC(=O)C=CC4(C)C3(F)C(O)CC21C (stereo not drawn) | °C | 298
N#CCCNc1ccccc1 | °C | 52.5

Now look at this one.
Please give the measured melting point for this compound: COc1ccccc1-c1ccc(C=C2C(=O)NC(=O)NC2=O)o1
220
